EXPERIMENTAL_TARGET: Beta-secretase 1 (Homo sapiens)
EXPERIMENT_SUMMARY: Inhibition of BACE1 (unknown origin) at 25 uM relative to control
Binary classification by inhibition, with 30% as an inclusive lower bound for criterion met; all other cases are criterion not met.

ITEM_SMILES: O=C(CCCc1ccc(O)cc1)NCc1cn(C[C@@H]2Cc3c([nH]c4ccccc34)CN2)nn1
EXPERIMENTAL_TARGET: Beta-secretase 1 (Homo sapiens)
GROUP_LABEL: criterion met
//
ITEM_SMILES: O=C(/C=C/c1ccc(O)c(O)c1)NCc1cn(C[C@@H]2Cc3c([nH]c4ccccc34)CN2)nn1
EXPERIMENTAL_TARGET: Beta-secretase 1 (Homo sapiens)
GROUP_LABEL: criterion met
//
ITEM_SMILES: CC(C)(C)c1ccc(-c2cn(C[C@@H]3Cc4c([nH]c5ccccc45)CN3)nn2)cc1
EXPERIMENTAL_TARGET: Beta-secretase 1 (Homo sapiens)
GROUP_LABEL: criterion not met
//
ITEM_SMILES: Clc1ccc(-c2cn(C[C@@H]3Cc4c([nH]c5ccccc45)CN3)nn2)cc1Cl
EXPERIMENTAL_TARGET: Beta-secretase 1 (Homo sapiens)
GROUP_LABEL: criterion met

* * *

EXPERIMENTAL_TARGET: Cholinesterase (Homo sapiens, UniProt P06276)
Sequence (P06276 whole entry): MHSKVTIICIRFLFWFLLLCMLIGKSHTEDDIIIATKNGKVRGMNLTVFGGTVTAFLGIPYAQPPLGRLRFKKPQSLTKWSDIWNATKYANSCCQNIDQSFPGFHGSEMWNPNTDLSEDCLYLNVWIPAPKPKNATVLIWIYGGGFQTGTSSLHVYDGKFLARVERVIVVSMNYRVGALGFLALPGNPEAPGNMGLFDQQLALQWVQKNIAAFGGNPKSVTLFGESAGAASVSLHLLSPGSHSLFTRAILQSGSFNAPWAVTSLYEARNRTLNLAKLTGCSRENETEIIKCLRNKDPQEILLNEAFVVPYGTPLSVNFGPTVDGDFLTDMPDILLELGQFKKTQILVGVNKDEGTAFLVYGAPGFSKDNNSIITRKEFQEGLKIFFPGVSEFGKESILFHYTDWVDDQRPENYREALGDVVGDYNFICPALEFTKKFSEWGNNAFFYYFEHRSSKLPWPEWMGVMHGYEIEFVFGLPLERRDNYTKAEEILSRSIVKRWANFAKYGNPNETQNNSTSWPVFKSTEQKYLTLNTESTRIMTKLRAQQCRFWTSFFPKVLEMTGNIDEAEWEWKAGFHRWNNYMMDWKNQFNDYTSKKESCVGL
pIC50: −log10 of the molar value.

COMPOUND: CC1(C)Oc2cc3oc(=O)ccc3cc2CC1OC(=O)n1cc(CNC(=O)CCCCC2CCSS2)nn1 (stereo unspecified)
EXPERIMENTAL_TARGET: Cholinesterase (Homo sapiens, UniProt P06276)
pIC50: 2.23

* * *

EXPERIMENTAL_TARGET: Acetylcholinesterase (Electrophorus electricus)
Sequence (O42275 whole entry): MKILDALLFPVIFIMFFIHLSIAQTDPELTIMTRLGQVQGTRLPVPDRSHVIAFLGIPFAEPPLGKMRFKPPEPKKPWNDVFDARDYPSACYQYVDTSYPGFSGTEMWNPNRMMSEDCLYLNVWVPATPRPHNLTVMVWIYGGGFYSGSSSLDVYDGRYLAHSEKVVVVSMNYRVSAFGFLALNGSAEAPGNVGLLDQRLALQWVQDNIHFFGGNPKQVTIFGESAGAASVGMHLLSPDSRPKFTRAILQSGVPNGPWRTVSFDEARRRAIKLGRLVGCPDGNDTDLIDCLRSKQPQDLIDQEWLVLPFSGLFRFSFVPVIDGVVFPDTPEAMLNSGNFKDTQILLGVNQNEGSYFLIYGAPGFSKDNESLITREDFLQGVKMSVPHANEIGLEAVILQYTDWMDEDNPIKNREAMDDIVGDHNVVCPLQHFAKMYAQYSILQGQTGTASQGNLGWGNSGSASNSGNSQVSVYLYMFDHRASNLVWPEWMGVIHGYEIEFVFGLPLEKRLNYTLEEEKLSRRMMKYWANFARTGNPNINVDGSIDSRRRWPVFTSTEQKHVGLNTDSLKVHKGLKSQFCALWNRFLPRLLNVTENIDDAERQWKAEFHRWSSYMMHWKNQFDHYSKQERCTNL
EXPERIMENT_SUMMARY: Inhibition of electric eel AChE using acetylthiocholine iodide as substrate after 15 mins by spectrophotometric analysis
# reported IC50; entries follow

ITEM_SMILES: CCn1c(O)nnc1-c1cn(CC)c2ccc(C)cc2c1=O
EXPERIMENTAL_TARGET: Acetylcholinesterase (Electrophorus electricus)
IC50 [mM]: 1.74
--
ITEM_SMILES: CCn1cc(-c2nnc(O)n2Cc2ccccc2)c(=O)c2cc(Cl)c(F)cc21
EXPERIMENTAL_TARGET: Acetylcholinesterase (Electrophorus electricus)
IC50 [mM]: 1.2

* * *

# reported IC50; entries follow
EXPERIMENTAL_TARGET: Cholinesterase (Homo sapiens, UniProt P06276)

COMPOUND: CN(C)CCCC1(c2ccc(F)cc2)CCc2cc(-c3nnc(-c4ccccc4I)[nH]3)ccc21 (stereo unspecified)
IC50: 4.52 to 9.52 µM
--
COMPOUND: CN(C)CCCC1(c2ccc(F)cc2)CCc2cc(-c3nnc(-c4ccc(F)cc4)[nH]3)ccc21 (stereo unspecified)
IC50: 5.31 µM
--
COMPOUND: CN(C)CCCC1(c2ccc(F)cc2)CCc2cc(-c3nnc(-c4cccc(Cl)c4)[nH]3)ccc21 (stereo unspecified)
IC50: 4.52 to 9.52 µM
--
COMPOUND: CN(C)CCCC1(c2ccc(F)cc2)CCc2cc(-c3nnc(-c4cccc(F)c4)[nH]3)ccc21 (stereo unspecified)
IC50: 4.52 to 9.52 µM
--
COMPOUND: COc1cc(-c2nnc(-c3ccc4c(c3)CCC4(CCCN(C)C)c3ccc(F)cc3)[nH]2)ccc1O (stereo unspecified)
IC50: 4.52 to 9.52 µM
--
COMPOUND: CN(C)CCCC1(c2ccc(F)cc2)CCc2cc(-c3nnc(-c4ccccc4F)[nH]3)ccc21 (stereo unspecified)
IC50: 4.52 µM

* * *

EXPERIMENTAL_TARGET: Cholinesterase (Homo sapiens, UniProt P06276)
EXPERIMENT_SUMMARY: Inhibition of BuChE (unknown origin) by Ellman's method
pIC50: −log10 of the molar value.
OUTCOME_MEASURE: pIC50

ITEM_SMILES: Cc1nn(CC(=O)N/N=C/c2ccc(Br)cc2)c(=O)n1-c1ccc(C(=O)N/N=C/c2ccc(Br)cc2)cc1
RESULT_NUMBER: 6.90

ITEM_SMILES: Cc1nn(CC(=O)N/N=C/c2ccc(Br)cc2O)c(=O)n1-c1ccc(C(=O)N/N=C/c2ccc(Br)cc2O)cc1
RESULT_NUMBER: 7.31

ITEM_SMILES: Cc1nn(CC(=O)N/N=C/c2ccc(Cl)cc2)c(=O)n1-c1ccc(C(=O)N/N=C/c2ccc(Cl)cc2)cc1
RESULT_NUMBER: 7.25

ITEM_SMILES: Cc1nn(CC(=O)N/N=C/c2cccc(Br)c2)c(=O)n1-c1ccc(C(=O)N/N=C/c2cccc(Br)c2)cc1
RESULT_NUMBER: 7.03

ITEM_SMILES: Cc1nn(CC(=O)N/N=C/c2ccccc2)c(=O)n1-c1ccc(C(=O)N/N=C/c2ccccc2)cc1
RESULT_NUMBER: 7.15

* * *

EXPERIMENTAL_TARGET: Beta-secretase 1 (Homo sapiens, UniProt P56817)
Sequence (P56817 whole entry): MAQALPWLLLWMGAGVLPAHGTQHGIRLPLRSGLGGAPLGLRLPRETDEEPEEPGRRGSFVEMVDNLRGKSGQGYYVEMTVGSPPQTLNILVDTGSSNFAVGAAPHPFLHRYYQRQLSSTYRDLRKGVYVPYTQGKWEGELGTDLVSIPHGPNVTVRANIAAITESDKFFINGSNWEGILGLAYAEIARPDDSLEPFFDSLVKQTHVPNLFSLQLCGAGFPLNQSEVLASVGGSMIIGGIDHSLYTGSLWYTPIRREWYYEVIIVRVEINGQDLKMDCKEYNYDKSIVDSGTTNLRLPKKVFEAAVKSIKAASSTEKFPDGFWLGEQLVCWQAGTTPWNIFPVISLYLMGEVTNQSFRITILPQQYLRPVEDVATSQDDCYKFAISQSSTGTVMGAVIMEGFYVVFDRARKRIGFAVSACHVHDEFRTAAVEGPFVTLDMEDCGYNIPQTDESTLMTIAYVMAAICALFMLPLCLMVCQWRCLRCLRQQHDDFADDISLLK
OUTCOME_MEASURE: IC50 (µM)

ITEM_SMILES: Clc1ccc(Cn2cc(COc3ccc(/C=N/Nc4nnc(-c5ccccc5)c(-c5ccccc5)n4)cc3)nn2)cc1
OUTCOME_MEASURE: IC50
UNIT_ABBREV: µM
RESULT_NUMBER: 8.55
